- target.desc: μ-opioid receptors (MOP receptors) (Mus musculus, UniProt P42866)
- Construct: expressed in transfected cells; host or cells: HEK293
- Sequence (P42866 whole entry): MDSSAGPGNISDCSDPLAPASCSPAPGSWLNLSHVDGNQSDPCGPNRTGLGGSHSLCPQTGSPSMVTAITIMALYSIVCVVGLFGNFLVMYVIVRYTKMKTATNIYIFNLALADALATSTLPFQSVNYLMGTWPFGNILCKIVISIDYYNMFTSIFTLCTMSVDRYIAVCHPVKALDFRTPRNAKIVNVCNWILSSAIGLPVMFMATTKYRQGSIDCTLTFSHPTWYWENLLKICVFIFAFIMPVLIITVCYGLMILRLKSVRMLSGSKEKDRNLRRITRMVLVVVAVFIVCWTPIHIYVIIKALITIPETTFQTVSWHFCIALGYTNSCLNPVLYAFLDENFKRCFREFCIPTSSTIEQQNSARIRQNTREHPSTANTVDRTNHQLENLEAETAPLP
- Type: cell-based
- assay.conditions: Conc 10^−14 M
- Experimental: Briefly, HEK-MOP cells were pre-incubated with 2% (2-hydroxypropyl)-β-cyclodextrin (βCD) for 1 h at 37° C. to deplete cholesterol from caveloae in the cell membrane. Cells were washed with DMEM and then utilized in the forskolin-stimulated cAMP assay as described above. […] Cells were washed with DMEM and then utilized in the forskolin-stimulated cAMP assay as described above.
Lab note: compare % of forskolin stimulated cyclic AMP response with 90%, writing YES if less and NO if equal or more.

Criterion: % of forskolin stimulated cyclic AMP response strictly below 90%. Is it met by Cc1c(-c2ccc(F)cc2)no[n+]1[O-] [Compound 23] ?
YES

For this molecule, is % of forskolin stimulated cyclic AMP response lower than 90%? CC(=O)c1c(-c2ccccc2)no[n+]1[O-] [Compound 27]
YES

Find out if reported % of forskolin stimulated cyclic AMP response for O=C(c1no[n+]([O-])c1-c1ccccc1)C(F)(F)F [Compound 22] is less than 90%
NO

Problem: For the molecule CCc1c(C(=O)O)no[n+]1[O-] [Compound 8] , is % of forskolin stimulated cyclic AMP response under 90%?
NO

Report whether reported % of forskolin stimulated cyclic AMP response is lower than 90% (strictly) for [O-][n+]1onc(-c2ccccc2)c1-c1ccccc1 [Compound 5]
NO

Consider O=C1CCc2c1no[n+]2[O-] [Compound 16] . Does its % of forskolin stimulated cyclic AMP response lie strictly below 90%?
NO

Does the reported % of forskolin stimulated cyclic AMP response of the following molecule sit strictly below 90%? [O-][n+]1onc(-c2ccc(F)cc2)c1-c1ccc(F)cc1 [Compound 21]
YES

Dear colleague, could you confirm whether % of forskolin stimulated cyclic AMP response of COc1ccc(-c2no[n+]([O-])c2C)cc1 [Compound 24] falls below 90%? Thanks.
YES

is_below(% of forskolin stimulated cyclic AMP response, 90%) for Cc1c(C(=O)O)no[n+]1[O-] [Compound 6] ?
NO

Quick check: does O=C(O)c1c(-c2ccc(F)cc2)no[n+]1[O-] [Compound 18] have % of forskolin stimulated cyclic AMP response under 90%?
YES
